target: GPR40 (Homo sapiens, UniProt O14842); assay: Cell-based aequorin assay (CHO cells stably expressing GPR40 and aequorin); set-up: expressed in transfected cells; host or cells: CHO cells stably transfected with GPR40 and aequorin; settings: activation of human GPR40, CHO cells, 0.01% HSA
Sequence (O14842 whole entry): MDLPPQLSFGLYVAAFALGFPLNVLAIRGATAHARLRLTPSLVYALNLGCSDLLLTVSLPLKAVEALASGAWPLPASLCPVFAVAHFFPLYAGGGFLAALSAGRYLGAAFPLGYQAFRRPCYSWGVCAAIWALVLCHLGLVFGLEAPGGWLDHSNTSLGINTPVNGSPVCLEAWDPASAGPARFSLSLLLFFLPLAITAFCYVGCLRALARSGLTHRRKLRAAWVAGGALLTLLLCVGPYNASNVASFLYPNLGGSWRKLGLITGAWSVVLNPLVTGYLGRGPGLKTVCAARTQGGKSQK
Quick list: EC50 per entry.

INSERT INTO measurements (molecule, measure_name, observed_measurement) VALUES
  ('COc1ccc(F)c(-c2ccc(COc3cccc(C(C)CC(=O)O)c3)cc2C2(C)CC2)c1 (single isomer, unassigned)', 'EC50', '100 to 1000 nM'),
  ('CCCCOc1cc(COc2cccc(CCC(=O)O)c2)ccc1-c1cc(OC)ccc1F', 'EC50', '1000 to 10000 nM');

Would you kindly look at the next entry?
Field request: EC50 | item: CSc1cccc(-c2ccc(COc3cccc(CCC(=O)O)c3)cc2C(C)(C)C)c1
1000 to 10000 nM
